# TARGET ENTITY: hSERT (Homo sapiens)
# Sequence (P31645 whole entry): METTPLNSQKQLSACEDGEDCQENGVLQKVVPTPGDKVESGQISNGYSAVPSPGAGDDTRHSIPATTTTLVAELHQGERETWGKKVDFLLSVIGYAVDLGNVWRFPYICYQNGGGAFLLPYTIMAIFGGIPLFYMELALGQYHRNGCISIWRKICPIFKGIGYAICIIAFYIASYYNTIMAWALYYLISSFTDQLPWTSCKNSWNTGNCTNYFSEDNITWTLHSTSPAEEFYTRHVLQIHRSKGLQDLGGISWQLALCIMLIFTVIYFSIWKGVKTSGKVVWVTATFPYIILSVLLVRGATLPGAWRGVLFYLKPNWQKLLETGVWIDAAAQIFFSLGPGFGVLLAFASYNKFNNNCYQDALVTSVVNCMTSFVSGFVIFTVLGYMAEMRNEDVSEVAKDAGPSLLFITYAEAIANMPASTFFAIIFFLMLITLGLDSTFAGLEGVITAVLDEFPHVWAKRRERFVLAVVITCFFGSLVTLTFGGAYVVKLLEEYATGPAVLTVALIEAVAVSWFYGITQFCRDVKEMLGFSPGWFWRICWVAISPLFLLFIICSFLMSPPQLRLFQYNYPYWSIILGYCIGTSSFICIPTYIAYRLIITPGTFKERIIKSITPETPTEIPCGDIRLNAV
# MEASUREMENT DESCRIPTION: hSERT neurotransmitter uptake assay (3H-5-HT), Assay 2
# Format: cell-based
# Parameters: expressed in transfected cells; host or cells: HEK-293
# RUN CONDITIONS: serotonin reuptake inhibition, 3H-5-HT uptake, HEK-293 hSERT cells (values without asterisk); read-out: SERT pIC50 (converted)
ASSAY READOUT: IC50

Field: example entries. Status: answers known.
| MOL SMILES | IC50 |
| --- | --- |
| CCC[C@@H](Oc1cccc(Cl)c1C)[C@H]1CCNC1 | ≤ 0.1 µM |
| CCC[C@@H](Oc1ccc(Cl)c(Cl)c1)[C@H]1CCNC1 | ≤ 0.01 µM |
| Fc1cc(Cl)cc(Cl)c1O[C@H](C1CC1)[C@H]1CCNC1 | ≤ 0.01 µM |
| CC(C)[C@H](Oc1ccc(Cl)c(F)c1)[C@H]1CCNC1 | ≤ 0.01 µM |
| COc1ccc(F)cc1O[C@@H](CC(C)C)[C@H]1CCNC1 | ≤ 0.1 µM |
| CCc1cc(F)ccc1O[C@@H](CC)[C@H]1CCNC1 | ≤ 0.01 µM |
| CC(C)C[C@H](Oc1c(F)c(F)cc(F)c1Cl)[C@H]1CCNC1 | ≤ 0.01 µM |
| Cc1c(Cl)cccc1O[C@H](CC(C)C)[C@H]1CCNC1 | ≤ 0.01 µM |

Now look at this one.
// field: IC50; key: CCC[C@H](Oc1cccc(Cl)c1C)[C@H]1CCNC1 ; value = ≤ 0.01 µM
